assay: Primary fluorescence-based thiol-reactive (MSTI) qHTS assay for identification of artifact compounds. (AID 1845221); details: MSTI thiol-reactivity probe, 1 h; series mostly up to 53.8 µM; note: nearly all actives have a fitted effect of over 65% in size
Results filed as inconclusive are left out. The source made the active and inactive calls. Calls come from the whole dose curve; as a rule, active = well fitted inhibition curve with a large enough effect; inconclusive = small, poorly fitted or top-dose-only effect; inactive = no such curve, though single readings can be large or run the other way.
Outcomes: TRUE = active, FALSE = inactive

| Compound | Category label |
| --- | --- |
| O=C(O)C[C@@H](NC(=O)c1cc(-c2ccc(-c3ccncc3)cc2)cs1)c1ccccc1 | FALSE |
| Cc1onc(-c2ccccc2)c1C(=O)N[C@@H]1C(=O)N2[C@@H]1SC(C)(C)[C@@H]2C(=O)O | FALSE |
| CCC(C)(O)C(O)C(=O)OCc1ccc(O[C@@H]2O[C@H](CO)[C@@H](O)[C@H](O)[C@H]2O)c(OC)c1 (stereo partly drawn) | FALSE |
| CC1(C)O[C@]23C[C@H]1C[C@H](OC(=O)c1ccoc1)[C@]2(C)[C@@H](OC(=O)c1ccoc1)CCC3(C)O (stereo partly drawn) | FALSE |
| C[C@@]12C[C@]3(O)O[C@H](O1)[C@]1(COC(=O)c4ccccc4)[C@H]3C[C@@]12O[C@@H]1O[C@H](COC(=O)c2ccccc2)[C@@H](O)[C@H](O)[C@H]1O | FALSE |
| CC1=CC(=O)CC(C)(CO[C@@H]2O[C@H](CO)[C@@H](O)[C@H](O)[C@H]2O)C1(O)/C=C/C(C)=C/C(=O)O (stereo partly drawn) | TRUE |
| O=c1ccn(C2OC(CO)C(O)C2O)c(=O)[nH]1 (stereo not drawn) | FALSE |
| NS(=O)(=O)NCCNc1nonc1C(=Nc1ccc(F)c(Br)c1)NO | FALSE |
| CC(C)=CCC/C(C)=C/CC/C(C)=C/CC[C@]1(C)CCc2cc(O)cc(C)c2O1 | FALSE |
| CC(C)NC[C@H](O)COc1ccc(CCOCC2CC2)cc1 | FALSE |
| CC(C)[C@@H](C)/C=C/[C@@H](C)[C@H]1CC[C@H]2C3=CC=C4C[C@@H](O)CC[C@]4(C)[C@H]3CC[C@]12C | FALSE |
| COc1cccc(-n2nc(C(=O)O)cc2-c2ccc(C3CCCCC3)c(Cl)c2)c1 | FALSE |
| O=C(O[C@H]1[C@@H]2C[C@@H]3OC[C@@](O)([C@H]2[C@H](O[C@@H]2O[C@H](CO)[C@@H](O)[C@H](O)[C@H]2O)O3)[C@@H]1O)c1ccccc1 | TRUE |
| C[C@@H](OC(=O)/C=C/c1ccc(O)cc1)C1=C[C@]2(C=C[C@@H]3C(C(=O)O)=CO[C@@H](O[C@@H]4O[C@H](CO[C@@H]5O[C@H](CO)[C@@H](O)[C@H](O)[C@H]5O)[C@@H](O)[C@H](O)[C@H]4O)[C@@H]32)OC1=O | TRUE |
| Cc1c(-c2ccnn2C)cc(C(=O)NCc2ccc(S(C)(=O)=O)cn2)c(=O)n1-c1cccc(C(F)(F)F)c1 | FALSE |
| Nc1ncnc2c1ncn2[C@H]1CCCO1 | FALSE |
| Cn1ccnc1CCOC(c1cc2nccc(C(=O)O)c2[nH]1)c1ccccc1Cl (stereo not drawn) | FALSE |
| C/C=C/C=C/C(CC(=O)O)Nc1ccc(C=O)cc1 (stereo not drawn) | TRUE |
| Cc1c(N2C(=O)c3ccc(C(=O)O)cc3C2=O)c(=O)n(-c2ccccc2)n1C | FALSE |
| CCOc1cc2ncc(C#N)c(Nc3ccc(OCc4ccccn4)c(Cl)c3)c2cc1NC(=O)/C=C/CN(C)C | FALSE |
| Nc1nonc1C(=Nc1ccc(F)c(Cl)c1)NO | FALSE |
| C=C1C(=O)OC2/C=C(\C)CC/C=C(\C(=O)O)CC/C=C(\C)CCC12 (stereo not drawn) | FALSE |
| c1ccc(C(OC2CCN(CCCc3nn[nH]n3)CC2)c2ccccc2)cc1 | FALSE |
| CCC(=O)NS(=O)(=O)c1ccc(-c2c(-c3ccccc3)noc2C)cc1 | FALSE |
| C=C1C2=CC(O)C(C)C1(C)CC/C(C)=C/CCC1(C)OC1C2=O (stereo not drawn) | FALSE |
| O=C(O)c1cc(O)c2cccc(O)c2c1O[C@@H]1O[C@H](CO)[C@@H](O)[C@H](O)[C@H]1O | TRUE |
| COc1ncc(-c2ccc3c(Nc4cc(Oc5cc(F)cc(F)c5)cc(C(=O)O)c4)c(S(=O)(=O)NC4CC4)cnc3c2)c(OC)n1 | FALSE |
| OC[C@H]1O[C@@H](Oc2ccc(O)c3cccc(O)c23)[C@H](O)[C@@H](O)[C@@H]1O | TRUE |

----------
Test system: N140
Experiment: qHTS profiling for inhibitors of Plasmodium falciparum proliferation (AID 504749); note: nearly all actives have a fitted effect of over 60% in size; note: potency is the fitted concentration of half-maximal effect
Conditions: P. falciparum in erythrocytes, SYBR Green DNA, 72 h; series mostly up to 28.7 µM
Experimental: NIH National Institute of Allergy and Infectious Diseases [NIAID] NIH Chemical Genomics Center [NCGC] […] Because mature erythrocytes lack DNA, only Plasmodium-derived DNA is detected. NCGC Assay Protocol Summary: The SYBR Green viability assay was adapted from a method described previously (Plouffe et al., 2008). […] The following morning, fluorescence intensity at 485(14) nm excitation and 535(25) nm emission wavelengths was measured on an EnVision (Perkin Elmer) plate reader. […]
Inconclusive results are not listed. Active and inactive are the calls of the source. The call rests on the fitted dose curve; in most records, active means well fitted inhibition curve with a large enough effect; inconclusive means small, poorly fitted or top-dose-only effect; inactive means flat fitted curve, though single readings scatter.

| Compound | Study system | Potency |
| --- | --- | --- |
| CCOC(=O)C1=CC2(CC)CCCN3CCc4c(n1c1ccccc41)C32 (stereo not drawn) | N140 | 8.91 µM (active) |
| Cc1c(C)c2c(c(C)c1O)CC[C@@](C)(CCC[C@@H](C)CCC[C@@H](C)CCCC(C)C)O2 | N140 | inactive |
| O=C(O)CN(CCN(CC(=O)O)CC(=O)O)CC(=O)O | N140 | inactive |
| CC(O)CO (stereo not drawn) | N140 | inactive |
| O=CCCCC=O | N140 | inactive |
| C[C@H]1C[C@H]2[C@@H]3CCC4=CC(=O)C=C[C@]4(C)[C@@]3(F)[C@@H](O)C[C@]2(C)[C@@]1(O)C(=O)CO | N140 | inactive |
| Nc1ncnc2c1ncn2[C@@H]1O[C@H](COP(=O)(O)OP(=O)(O)OP(=O)(O)O)[C@@H](O)[C@H]1O | N140 | inactive |
| CCC(=O)NCCC1CCc2ccc3c(c21)CCO3 (stereo not drawn) | N140 | inactive |
| CCNC(=O)[C@@H]1CCCN1C(=O)[C@H](CCCN=C(N)N)NC(=O)[C@H](CC(C)C)NC(=O)[C@@H](Cc1c[nH]c2ccccc12)NC(=O)[C@H](Cc1ccc(O)cc1)NC(=O)[C@H](CO)NC(=O)[C@H](Cc1c[nH]c2ccccc12)NC(=O)[C@H](Cc1cnc[nH]1)NC(=O)[C@@H]1CCC(=O)N1 | N140 | 4.47 µM (active) |
| CC(Cc1ccc(O)c(O)c1)C(C)Cc1ccc(O)c(O)c1 (stereo not drawn) | N140 | inactive |
| CC[N+](C)(C)Cc1ccccc1Br | N140 | inactive |
| CCCCCCC(O)C/C=C/CCCCCCCC(=O)O (stereo not drawn) | N140 | inactive |
| CCCC(=O)O[C@]1(C(=O)CCl)[C@H](C)C[C@@H]2[C@H]3CCC4=CC(=O)C=C[C@]4(C)[C@@]3(F)C(=O)C[C@@]21C | N140 | 3.16 µM (active) |
| C[C@]12CCC(=O)C=C1CC[C@@H]1[C@@H]2[C@@H](O)C[C@@]2(C)[C@H]1CC[C@]2(O)C(=O)COP(=O)(O)O | N140 | inactive |
| COC(=O)[C@H]1[C@H]2C[C@@H]3c4[nH]c5ccccc5c4CCN3C[C@H]2C[C@@H](OC(=O)c2cc(OC)c(OC)c(OC)c2)[C@@H]1OC | N140 | 0.199 µM (active) |
| CCOC(=O)C1=C(C)NC(C)=C(C(=O)OCC)C1c1ccccc1C=CC(=O)OC(C)(C)C | N140 | 10 µM (active) |
| CC(NNC(=O)c1ccccc1)c1ccccc1 (stereo not drawn) | N140 | inactive |
| Oc1cc(O)c2c(c1)OC(c1ccc(O)c(O)c1)C(O)C2 (stereo not drawn) | N140 | inactive |
| COC(C(=O)C(O)C(C)O)C1Cc2cc3cc(OC4CC(OC5CC(O)C(O)C(C)O5)C(O)C(C)O4)c(C)c(O)c3c(O)c2C(=O)C1OC1CC(OC2CC(OC3CC(C)(O)C(O)C(C)O3)C(O)C(C)O2)C(O)C(C)O1 (stereo not drawn) | N140 | 0.199 µM (active) |
| CC(C)N=c1cc2n(-c3ccc(Cl)cc3)c3ccccc3nc-2cc1Nc1ccc(Cl)cc1 | N140 | inactive |
| CC1=C(/C=C/C(C)=C/C=C/C(C)=C/CO)C(C)(C)CCC1 | N140 | 8.91 µM (active) |
| Cc1ccccc1OCC(O)CNCCOc1ccc(C(N)=O)cc1 (stereo not drawn) | N140 | inactive |
| CCCCCCCC/C=C\CCCCCCCC(=O)O | N140 | inactive |
| CCOc1ccc2c(c1)C(C)=CC(C)(C)N2 | N140 | inactive |
| CC(C)=O | N140 | inactive |
| O=S(=O)(O)c1ccc2c(N=Nc3ccc(S(=O)(=O)O)c4ccccc34)c(O)c(S(=O)(=O)O)cc2c1 | N140 | inactive |
| CC1=CCC(C(C)(C)O)CC1 (stereo not drawn) | N140 | inactive |
| Cc1c(C)c2c(c(C)c1O)CC[C@@](C)(CCC[C@H](C)CCC[C@H](C)CCCC(C)C)O2 | N140 | inactive |
| C[C@@H]1CCC2[C@@H](C)[C@@H](O)O[C@@H]3O[C@@]4(C)CC[C@@H]1[C@@]23OO4 (stereo partly drawn) | N140 | 0.0016 µM (active) |
| COC(=O)CCC(=O)CN | N140 | inactive |
| CC1=C(/C=C/C(C)=C/C=C/C(C)=C/C=C/C=C(C)/C=C/C=C(C)/C=C/C2=C(C)CCCC2(C)C)C(C)(C)CCC1 | N140 | inactive |
| COCC(=O)Nc1cc(Sc2ccccc2)ccc1N=C(NC(=O)OC)NC(=O)OC | N140 | inactive |
| O=C1C(=O)c2ncccc2-c2cccnc21 | N140 | 1.26 µM (active) |
